# Tested on: SW-620
# test-summary: Antiproliferative activity against human SW620 cells after 72 hrs by MTT assay
# Assay type: functional, cell-based
# condition-label: Homo sapiens, SW-620, 72 h; read-out: IC50
readout: IC50 (µM)
Numbers only here, please. The scale is µM.

{"columns": ["compound", "test-target", "output-unit", "IC50"],
 "data": [
  ["COc1ccc(C2=N[C@H](c3ccc(Cl)cc3)[C@H](c3ccc(Cl)cc3)N2C(=O)NCC(=O)O)c(OC(C)C)c1", "SW-620", "µM", 5.7],
  ["CCN(CC)C(=O)CCNC(=O)N1C(c2ccc(OC)cc2OC(C)C)=N[C@H](c2ccc(Cl)cc2)[C@@H]1c1ccc(Cl)cc1", "SW-620", "µM", 3.13],
  ["COc1ccc(C2=NC(c3ccc(Cl)cc3)C(c3ccc(Cl)cc3)N2C(=O)N2CCN(C(C)=O)CC2)c(OC(C)C)c1 (configuration not stated)", "SW-620", "µM", 33.7],
  ["CCOC(=O)CNC(=O)N1C(c2ccc(OC)cc2OC(C)C)=N[C@H](c2ccc(Cl)cc2)[C@@H]1c1ccc(Cl)cc1", "SW-620", "µM", 3.88]
]}

Request body: readout IC50, system SW-620, query `COc1ccc(C2=N[C@H](c3ccc(Cl)cc3)[C@H](c3ccc(Cl)cc3)N2C(=O)NCCC(=O)N2CCN(C)CC2)c(OC(C)C)c1` . Return the value. 5.99

Also need `CCN(CC)C(=O)CCCNC(=O)N1C(c2ccc(OC)cc2OC(C)C)=N[C@H](c2ccc(Cl)cc2)[C@@H]1c1ccc(Cl)cc1` , thanks. 6.45

Also need `CCN(CC)C(=O)CNC(=O)N1C(c2ccc(OC)cc2OC(C)C)=N[C@H](c2ccc(Cl)cc2)[C@@H]1c1ccc(Cl)cc1` , thanks. 12.3

---

# System: SW-620
# test-summary: Antiproliferative activity against human SW620 cells after 72 hrs by MTT assay
# Format: functional, cell-based
# condition-label: Homo sapiens, SW-620, 72 h; read-out: IC50
Measured IC50 accompanies every entry in the list below.
Numbers only here, please. The scale is µM.

{"columns": ["test-smiles", "endpoint-result"],
 "data": [
  ["COc1ccc(C2=N[C@H](c3ccc(Cl)cc3)[C@H](c3ccc(Cl)cc3)N2C(=O)NCCC(=O)N2CCOCC2)c(OC(C)C)c1", 5.89],
  ["COc1ccc(C2=N[C@H](c3ccc(Cl)cc3)[C@H](c3ccc(Cl)cc3)N2C(=O)NCC(=O)N2CCCC2)c(OC(C)C)c1", 2.9],
  ["CCN(CC)C(=O)[C@@H](C)NC(=O)N1C(c2ccc(OC)cc2OC(C)C)=N[C@H](c2ccc(Cl)cc2)[C@@H]1c1ccc(Cl)cc1", 8.56]
]}

Recorded IC50 for `COc1ccc(C2=N[C@H](c3ccc(Cl)cc3)[C@H](c3ccc(Cl)cc3)N2C(=O)N[C@H](C)C(=O)O)c(OC(C)C)c1` , please? 9.2

Also need `CCOC(=O)[C@@H](C)NC(=O)N1C(c2ccc(OC)cc2OC(C)C)=N[C@H](c2ccc(Cl)cc2)[C@@H]1c1ccc(Cl)cc1` , thanks. 5.52

Also need `COc1ccc(C2=N[C@H](c3ccc(Cl)cc3)[C@H](c3ccc(Cl)cc3)N2C(=O)NCC(=O)N2CCN(C(C)=O)CC2)c(OC(C)C)c1` , thanks. 8.13

Also need `COc1ccc(C2=N[C@H](c3ccc(Cl)cc3)[C@H](c3ccc(Cl)cc3)N2C(=O)N[C@H](C)C(=O)N2CCN(C)CC2)c(OC(C)C)c1` , thanks. 2.74

Also need `COc1ccc(C2=N[C@H](c3ccc(Cl)cc3)[C@H](c3ccc(Cl)cc3)N2C(=O)NCC(=O)N2CCOCC2)c(OC(C)C)c1` , thanks. 6.25

Also need `CCN(CC)C(=O)[C@H](C)NC(=O)N1C(c2ccc(OC)cc2OC(C)C)=N[C@H](c2ccc(Cl)cc2)[C@@H]1c1ccc(Cl)cc1` , thanks. 4.6

meta.source: ChEMBL document CHEMBL1944528
